property_measured: melting point

# smiles_repr, result
data = [
    ("COCCCc1cc(N(C)Cc2ccc(-c3ccc(OC(F)(F)F)cc3)nc2)ccc1OCC(=O)O", "73 to 75 °C"),
    ("Cc1cc(OCc2cnc(-c3ccc(C(F)(F)F)nc3)nc2C2CC2)ccc1OC(C)(C)C(=O)O", "185 to 185.5 °C"),
    ("Cc1cc(SCc2cnc(-c3ccc(C(F)(F)F)cc3)nc2C2CC2)ccc1OC(C)(C)C(=O)O", "129 to 131 °C"),
    ("COCCCc1cc(N(C)Cc2ccc(-c3ccc(C(F)(F)F)cc3)nc2)ccc1OCC(=O)O", "72 to 76 °C"),
]

* * *

molecules and their reported melting point
property_measured: melting point

# molecule, result
rows = [
    ("COCc1nc(-c2ccc(C(F)(F)F)cc2)ccc1COc1ccc(OC(C)(C)C(=O)O)c(C)c1", "121 to 122 °C"),
    ("CCOCCc1nc(-c2ccc(C(F)(F)F)nc2)ncc1COc1ccc(OC(C)(C)C(=O)O)c(C)c1", "122 to 124 °C (dec.)"),
    ("Cc1cc(OCc2cnc(-c3ccc(C(F)(F)F)cc3)nc2CCO)ccc1OC(C)(C)C(=O)O", "155 to 155.5 °C"),
    ("Cc1cc(SC(C)c2ccc(-c3ccc(C(F)(F)F)cc3)nc2C)ccc1OCC(=O)O (racemic)", "115 to 117 °C"),
    ("Cc1cc(SCc2cnc(-c3ccc(OC(F)(F)F)cc3)nc2C2CC2)ccc1OC(C)(C)C(=O)O", "127 to 128 °C (dec.)"),
    ("COCCCc1cc(N(C)Cc2ccc(-c3ccc(C(F)(F)F)cc3)nc2C)ccc1OCC(=O)O", "72 to 73 °C"),
    ("Cc1cc(N(C)Cc2ccc(-c3ccc(OC(F)(F)F)cc3)nc2)ccc1OCC(=O)O", "137 to 138 °C"),
    ("Cc1cc(OCc2ccc(-c3ccc(OC(F)(F)F)cc3)nc2C2CC2)ccc1OC(C)(C)C(=O)O", "131 to 133 °C"),
    ("Cc1cc(N(C)Cc2ccc(-c3ccc(C(F)(F)F)cc3)nc2)ccc1OCC(=O)O", "199 °C"),
]
